Molecular target: Sodium-dependent dopamine transporter (Rattus norvegicus)
Sequence (P23977 whole entry): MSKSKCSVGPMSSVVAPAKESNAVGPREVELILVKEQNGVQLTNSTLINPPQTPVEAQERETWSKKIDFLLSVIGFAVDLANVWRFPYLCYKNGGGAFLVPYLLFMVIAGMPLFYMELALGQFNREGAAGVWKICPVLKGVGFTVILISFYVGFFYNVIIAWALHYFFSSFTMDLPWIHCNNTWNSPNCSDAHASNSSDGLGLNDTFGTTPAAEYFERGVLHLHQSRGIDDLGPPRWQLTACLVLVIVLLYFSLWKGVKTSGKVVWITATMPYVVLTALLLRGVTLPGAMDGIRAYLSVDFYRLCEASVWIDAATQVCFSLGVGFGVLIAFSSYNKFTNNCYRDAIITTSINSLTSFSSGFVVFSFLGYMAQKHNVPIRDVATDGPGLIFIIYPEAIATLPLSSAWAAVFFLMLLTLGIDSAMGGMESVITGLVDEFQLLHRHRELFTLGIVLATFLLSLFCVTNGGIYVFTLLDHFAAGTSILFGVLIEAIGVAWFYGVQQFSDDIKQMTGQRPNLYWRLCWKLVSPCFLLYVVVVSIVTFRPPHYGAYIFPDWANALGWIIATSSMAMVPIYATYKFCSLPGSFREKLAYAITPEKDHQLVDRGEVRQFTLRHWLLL
Experiment: Inhibition of [3H]WIN-35428 binding to dopamine transporter using rat striatal tissue
Type: tissue-based, Striatum
TEST_READOUT: pIC50
In plain terms, pIC50 is the concentration in mol/L turned into minus its base-10 logarithm.

Here's what some known entries look like.
I'd like to know its pIC50. The molecule in question is COC(=O)C(c1ccccc1Br)C1CCCCN1 (single isomer, unassigned)
4.42

Now consider COC(=O)[C@@H](c1cccc(F)c1)[C@@H]1CCCCN1 .
7.39

Now consider COC(=O)[C@@H](c1cccc(O)c1)[C@@H]1CCCCN1 .
6.49

Now consider COC(=O)[C@@H](c1ccccc1Cl)[C@@H]1CCCCN1 .
5.71

Now consider COC(=O)C(c1ccccc1OC)C1CCCCN1 (single isomer, unassigned) .
3.86

Now consider COC(=O)[C@@H](c1ccccc1F)[C@@H]1CCCCN1 .
5.85

Attention now turns to another entry.
I'd like to know its pIC50. The molecule in question is COC(=O)[C@@H](c1ccc(F)cc1)[C@@H]1CCCCN1
7.46

====

Target: Sodium-dependent dopamine transporter (Rattus norvegicus)
Assay: Inhibitory activity against [3H]dopamine uptake in rat striatal tissue
Type: functional, tissue-based, Striatum
TEST_READOUT: pIC50
In plain terms, pIC50 is the concentration in mol/L turned into minus its base-10 logarithm.

Here's what some known entries look like.
I'd like to know its pIC50. The molecule in question is COC(=O)C(c1ccccc1Br)C1CCCCN1 (single isomer, unassigned)
4.23

Now consider COC(=O)[C@@H](c1ccccc1F)[C@@H]1CCCCN1 .
5.54

Now consider COC(=O)[C@@H](c1ccc(I)cc1)[C@@H]1CCCCN1 .
7.19

Now consider COC(=O)[C@@H](c1ccc([N+](=O)[O-])cc1)[C@@H]1CCCCN1 .
5.79

Next:
I'd like to know its pIC50. The molecule in question is COC(=O)C(c1ccccc1Cl)C1CCCCN1 (single isomer, unassigned)
4.21

Now consider COC(=O)[C@@H](c1ccc(N)cc1)[C@@H]1CCCCN1 .
6.94

Now consider COC(=O)[C@@H](c1ccc(C)cc1)[C@@H]1CCCCN1 .
6.90

Now consider COC(=O)[C@@H](c1ccc(F)cc1)[C@@H]1CCCCN1 .
6.85

Now consider COC(=O)[C@@H](c1ccc(OC)c(OC)c1)[C@@H]1CCCCN1 .
5.75

Now consider COC(=O)[C@@H](c1cccc(N)c1)[C@@H]1CCCCN1 .
6.24

====

These records show Hill coefficient for UniProt P23977.
Write no unit; give the number alone.

Here's what some known entries look like.
Request: Hill coefficient, test system UniProt P23977, entry COC(=O)C(c1cccc(Cl)c1)C1CCCCN1 (single isomer, unassigned)
1.03

Now consider COC(=O)[C@@H](c1cccc(O)c1)[C@@H]1CCCCN1 .
1.09

Now consider COC(=O)C(c1ccc(C(C)(C)C)cc1)C1CCCCN1 (single isomer, unassigned) .
1.1

Attention now turns to another entry.
Request: Hill coefficient, test system UniProt P23977, entry COC(=O)[C@@H](c1ccc(F)cc1)[C@@H]1CCCCN1
0.97
